Target: T1, human SLC34A2 (human, UniProt O95436 1-690)
T1 sequence (looked up): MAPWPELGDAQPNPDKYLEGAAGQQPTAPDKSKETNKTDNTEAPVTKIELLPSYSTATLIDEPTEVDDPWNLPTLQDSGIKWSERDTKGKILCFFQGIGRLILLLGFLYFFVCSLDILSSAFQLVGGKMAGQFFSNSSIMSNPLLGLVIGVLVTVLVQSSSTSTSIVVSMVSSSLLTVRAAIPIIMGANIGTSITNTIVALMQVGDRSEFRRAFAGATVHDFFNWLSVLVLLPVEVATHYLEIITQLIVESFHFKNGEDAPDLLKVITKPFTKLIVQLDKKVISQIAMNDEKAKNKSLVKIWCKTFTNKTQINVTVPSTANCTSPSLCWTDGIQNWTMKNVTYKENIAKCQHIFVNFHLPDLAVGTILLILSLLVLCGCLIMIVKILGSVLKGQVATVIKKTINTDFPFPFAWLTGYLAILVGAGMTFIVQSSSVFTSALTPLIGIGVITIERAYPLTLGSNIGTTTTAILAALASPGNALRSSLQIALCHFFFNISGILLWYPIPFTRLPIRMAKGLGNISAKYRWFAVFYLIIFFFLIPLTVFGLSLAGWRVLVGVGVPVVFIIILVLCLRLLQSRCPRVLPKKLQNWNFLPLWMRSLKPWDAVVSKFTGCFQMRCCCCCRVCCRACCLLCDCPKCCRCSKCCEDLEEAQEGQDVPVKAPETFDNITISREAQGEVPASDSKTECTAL
Assay: cell-based or functional assay

[
  {
    "Binder": "xi90G10H7 hIgG1 (antibody, V domains shown, chimeric, hIgG1) VH: QVQLQQPGAVLVKPGASVKMSCKASGYTFTSYIIHWVKQTPGQGLEWVGAIYPGNGDASSIQKFKGKATLTVDKSSSTAYMQLSSLTSADSAVYYCARGHYYGSAAWFAYWGQGTLVTVSA VL: DILLTQSPAILSVSPGERVSFSCRASQNIGTGIHWYQQRTNGSLRLLIKYASESISGIPSRFSGSGSGTDFTLSINSVESEDIADYYCQQSNSWPLTFGAGTKLELK",
    "cytotoxicity Inhibition %": "103%"
  },
  {
    "Binder": "xi16E5D10 hIgG1 (antibody, V domains shown, chimeric, hIgG1) VH: QVQLQQPGAELVKPGASVMMSCKASGYTFSNHNLHWLKKTPGQGLDWIGAIYPGNGDTSYNQKFKGRATLTVDKSSNTAYMQFSSLTSEDSAVFYCARGKYGNGAMDYWGQGTAVTVSS VL: DIVMTQSHKFMSTSVGDRVSITCRASQDVGTAVVWYQQKLGQSPKLLFDWASSRHTGVPDRFTGSGSGTDFTLTITDVQSEDLADYFCQQYSRQPLTFGAGTKLELK",
    "cytotoxicity Inhibition %": "93.1%"
  },
  {
    "Binder": "xi62G10E4G8 hIgG1 (antibody, V domains shown, chimeric, hIgG1) VH: QVQLQQSGAEVVKPGASVKMSCKASGYTFPSYITHWVKQTPGQGLEWIGAIYPGNGDTSYIQKFKGKATLTADKSSSTAYMQLSSLTSEDSAVYYCARGTYGTSAWFTYWGQGTLVTVSA VL: DIVLTQSPATLSVTPGDSVSLSCRARQNIGNNLYWYQQKSHESPRLLIKYASQSISGIPSRFSGSGSGTDFTLTINSVETEDFGVYFCQQSFSWPLTFGAGTKLELK",
    "cytotoxicity Inhibition %": "97.2%"
  },
  {
    "Binder": "xi78D1B10 hIgG1 (antibody, V domains shown, chimeric, hIgG1) VH: QVQLQQPGADLVKPGASVKLSCKASGFTFTSYIIHWVKQTPGQGLEWIGAIYPGNGDTSYIQKFKGRATLTADKSSTTAYMQLGGLTSEDSAVYYCARGTYGSSAWFVYWGQGTLVTVSA VL: DIVLTQSPATLSVTPGDSVSLSCRASQSISNNLYWYQQKSHESPRLLIKYASQSISGIPSRFRGSGSGTDFTLSINSVETEDFGMYFCQQSNSWPLTFGAGTKLELK",
    "cytotoxicity Inhibition %": "94%"
  },
  {
    "Binder": "xi94B10A8 hIgG1 (antibody, V domains shown, chimeric, hIgG1) VH: QVQLQQTGAELVKPGASVKMSCKASGYTFTGYIIHWIKQRPGQGLEWIGAIYPGNGDTSYNQKIKGRATLTADKSSTTAYMQLSSLTSEDSAVYYCARGDYGNPAWFAYWGQGTLVTVSA VL: DVVLTQSPATLSVTPGDRVSLSCRASQSISNYLYWYQQKAHESPRLLIKFASQSISGIPSRFRGSGSGTDFTLSINSVETEDFGMYFCQQSNKWPLTFGAGTKLELK",
    "cytotoxicity Inhibition %": "97.5%"
  },
  {
    "Binder": "xi28G3C6B9 hIgG1 (antibody, V domains shown, chimeric, hIgG1) VH: QVQLQQPGAEVVKPGASVKMSCKASGYTFTSYIIHWVKQAPGQGLEWIGAIYPGNGDTSYSQRFKGKAKLTADKSSSTAYMQLNSLTSEDSVVYYCARGNNYGSPAWFGYWGQGTLVTVSA VL: DIVLTQSPVTLSVTPGDRVSLSCRASQSIGNFLYWYQQKSHESPRLLIKYASQSMSGIPSRFSGSGSGTDFTLSISRVETEDFGMYFCQQSNSWPVTFGAGTKLELK",
    "cytotoxicity Inhibition %": "86.4%"
  },
  {
    "Binder": "xi87H12B7 hIgG1 (antibody, V domains shown, chimeric, hIgG1) VH: QVQLQQPGAEVVRPGASVKMSCKASGYTFTSYIVHWVKQPPGQGLEWIGAIYPGNGDTSYIQKFKGRATLTADKSSSTVYMQLSSLTSEDSAVYYCARGHYYGSAAWFGFWGQGTLVTVSA VL: DILLTQSPAILSVSPGERVSFSCRASQNIGTSIHWYQQRTNDSPRLLMRYASESVSGIPSRFSGSGSGTDFTLSINSVESEDIADYYCQQSNTWPLTFGAGTKLELK",
    "cytotoxicity Inhibition %": "82.6%"
  },
  {
    "Binder": "xi94E9B12 hIgG1 (antibody, V domains shown, chimeric, hIgG1) VH: QVQLQQPGAELVKPGASVKMSCKASGYTFTSYNMQWVKQTYGQGLEWIGAISPGSGETSYNQNFKVKATLTADKISSTAYMQLSSLTSEDSAVYYCARAARAEGWFAYWGQGTLVTVSA VL: DIVMTQSHKFMSTSVGDRVSITCKASQDVGHAVVWYQQKPGQFPKLLIYWASTRHAGVPDRFTGSGSGTDFTLTISNVQSEDLADYFCQQFRSIPLTFGSGTKLEIK",
    "cytotoxicity Inhibition %": "83.6%"
  },
  {
    "Binder": "xi63A11D5B4 hIgG1 (antibody, V domains shown, chimeric, hIgG1) VH: QVQLQQPGAELVKPGASVKMSCRTSGYTFITYNMHWVKQTPGQGREWIGAIYPGNGDTSYNQKFKGKATLTADKSSSTAYMQLNSLTSEDSAVYYCSISTIITTGAVDYWGQGTSVTVAS VL: DIVMTQSHKFMSTSVGDRVSITCKASQDVGTAVAWYQQKAGQSPKLLIYWTSTRHTGVPDRFTGSGSGTDFTLIIRSLQSEDLADYFCQQYSRIPLTFGSGTKLEIK",
    "cytotoxicity Inhibition %": "99%"
  },
  {
    "Binder": "xi30H9B8F9 hIgG1 (antibody, V domains shown, chimeric, hIgG1) VH: QVQLQQPGAELVKPGASVKMSCKTSGYTFTTNNMHWVKQTPGQGLEWIGAIYPGNGATAYNQKFKGKATLTADKSSSTAYMQLSSLTSEASAVYYCARGMYGHGAMDYWGQGTSVIVSS VL: DIVMTQSHKFMSRSVGDRVRITCKASQDVGTAVAWYQQKPGQSPKLLIYWATTRHSGVPDRFTGSGSGTDFIFTISNVQSEDLADYFCQQYSSNPLTFGAGTKLELK",
    "cytotoxicity Inhibition %": "91.7%"
  }
]

The reported numbers originate from patent US20240301052A1.
